- study.system: Decaprenyl diphosphate synthase (Mycobacterium tuberculosis (strain CDC 1551 / Oshkosh), UniProt P9WFF6)
- Sequence (P9WFF6 whole entry): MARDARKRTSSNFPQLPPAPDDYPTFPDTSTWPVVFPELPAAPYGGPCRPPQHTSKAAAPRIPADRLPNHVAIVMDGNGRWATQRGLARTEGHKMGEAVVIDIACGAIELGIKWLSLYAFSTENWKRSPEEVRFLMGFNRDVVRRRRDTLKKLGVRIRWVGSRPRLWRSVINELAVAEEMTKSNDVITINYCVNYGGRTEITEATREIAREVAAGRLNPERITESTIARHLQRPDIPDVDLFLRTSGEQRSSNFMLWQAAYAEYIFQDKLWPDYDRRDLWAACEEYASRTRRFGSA
- procedure.text: DPPS Inhibition (GPP based) Assay
- condition.set: pH 7.5
Record form. Attribute: IC50. Fill in for each entry.
Supply the numeric figure in nM, leaving out any unit text.

**Query** Please report IC50 for the following compound: CCCCCCCCCCCCCCSc1ccccc1C(=O)O
**Result** 36

**Query** Please report IC50 for the following compound: CCCCCCCCOc1cccc(C(=O)Nc2ccc([N+](=O)[O-])cc2C(=O)O)c1
**Result** 119

**Query** Please report IC50 for the following compound: C(=C\c1cc2ccc(C3=NCCN3)cc2[nH]1)/c1cc2ccc(C3=NCCN3)cc2[nH]1
**Result** 490

---

Record form. Attribute: IC50. Fill in for each entry.
- study.system: Decaprenyl diphosphate synthase (Mycobacterium tuberculosis (strain CDC 1551 / Oshkosh), UniProt P9WFF6)
- Sequence (P9WFF6 whole entry): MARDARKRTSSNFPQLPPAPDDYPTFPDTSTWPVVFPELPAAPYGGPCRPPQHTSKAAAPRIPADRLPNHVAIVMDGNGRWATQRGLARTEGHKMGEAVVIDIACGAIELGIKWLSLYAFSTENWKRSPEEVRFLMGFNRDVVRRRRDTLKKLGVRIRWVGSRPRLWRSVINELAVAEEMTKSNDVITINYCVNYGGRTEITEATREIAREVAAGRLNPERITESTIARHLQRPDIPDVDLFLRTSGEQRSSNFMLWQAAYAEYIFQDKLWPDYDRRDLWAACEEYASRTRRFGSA
- procedure.text: DPPS Inhibition (cis FPP based) Assay
- condition.set: pH 7.5
Supply the numeric figure in µM, leaving out any unit text.

**Query** Please report IC50 for the following compound: CCCCCCCCOc1cccc(C(=O)Nc2ccc(Br)cc2C(=O)O)c1 [BPH-1264]
**Result** 11

**Query** Please report IC50 for the following compound: CCCCCCCCCCOc1cccc(CSc2ccccc2C(=O)O)c1 [BPH-1102]
**Result** 19

**Query** Please report IC50 for the following compound: Cc1ccc(S(=O)(=O)N2CCN(c3ccc(C(=O)/C=C(\O)C(=O)O)cc3)CC2)cc1 [BPH-1380]
**Result** 20

**Query** Please report IC50 for the following compound: CCCCCCCCOc1cccc(COc2ccc(S(=O)(=O)N3CCOCC3)cc2C(=O)O)c1 [BPH-1158]
**Result** 83

**Query** Please report IC50 for the following compound: CCCCCCCCOc1cc(O)cc(COc2ccc(Br)cc2C(=O)O)c1 [BPH-1311]
**Result** 56

**Query** Please report IC50 for the following compound: CCCCCCCCOc1cccc(CO/C=C/C=C(\C=C\C(=O)O)S(=O)(=O)N(C)C)c1 [BPH-1152]
**Result** 83

**Query** Please report IC50 for the following compound: C=CCC(/C=C/C(=O)Nc1ccc(F)cc1C(=O)O)OCCCCCCCC (centres undefined) [BPH-1463]
**Result** 90

**Query** Please report IC50 for the following compound: CCCCCCCCCCCCCCCn1cc[n+](CC(O)(P(=O)(O)O)P(=O)(O)O)c1 [BPH-1325]
**Result** 36

**Query** Please report IC50 for the following compound: C(=C\c1cc2ccc(C3=NCCN3)cc2[nH]1)/c1cc2ccc(C3=NCCN3)cc2[nH]1 [BPH-1417]
**Result** 20

**Query** Please report IC50 for the following compound: CCCCCCCCCCOc1cccc(COc2ccccc2P(=O)(O)O)c1 [BPH-1159]
**Result** 55

**Query** Please report IC50 for the following compound: CCCCCCCCOc1ccc(C(=O)CSCC(=O)O)cc1 [BPH-1391]
**Result** 82

**Query** Please report IC50 for the following compound: CCCCCCCCOc1ccc(F)c(C(=O)Nc2ccc(F)cc2C(=O)O)c1 [BPH-1485]
**Result** 20

**Query** Please report IC50 for the following compound: CCCCCCCCOc1cccc(C(=O)Nc2ccc(S(N)(=O)=O)cc2C(=O)O)c1 [BPH-1255]
**Result** 65

**Query** Please report IC50 for the following compound: CCCCCCCCOc1cccc(C(=O)Nc2cccc(C(=O)O)c2C(O)O)c1 [BPH-1461]
**Result** 55

**Query** Please report IC50 for the following compound: O=C(O)c1ccccc1SCc1cccc(Oc2ccccc2)c1 [BPH-1125]
**Result** 30

**Query** Please report IC50 for the following compound: CCCCCCCCOc1cccc(C(=O)Nc2ccc([N+](=O)[O-])cc2C(=O)O)c1 [BPH-1247]
**Result** 49

**Query** Please report IC50 for the following compound: O=C(O)/C(O)=C/C(=O)c1ccc(N2CCN(C(=O)c3cccc(-c4ccccc4)c3)CC2)cc1 [BPH-1381]
**Result** 15

**Query** Please report IC50 for the following compound: CCCCCCCCOc1cccc(C(=O)Nc2cc(OC)c(OC)cc2C(=O)O)c1 [BPH-1294]
**Result** 62

**Query** Please report IC50 for the following compound: O=P(O)(O)C(O)(c1cccc(-c2cccc(-c3ccccc3)c2)c1)P(=O)(O)O [BPH-640]
**Result** 0.61

---

Record form. Attribute: IC50. Fill in for each entry.
- study.system: Decaprenyl diphosphate synthase (Mycobacterium tuberculosis (strain CDC 1551 / Oshkosh), UniProt P9WFF6)
- procedure.text: DPPS Inhibition (trans FPP based) Assay
- condition.set: pH 7.5
Supply the numeric figure in µM, leaving out any unit text.

**Query** Please report IC50 for the following compound: O=P(O)(O)C(O)(Cc1cccc(-c2ccccc2)c1)P(=O)(O)O [BPH-294]
**Result** 7.5

**Query** Please report IC50 for the following compound: O=P(O)(O)C(O)(CCc1ccc(-c2ccccc2)cc1)P(=O)(O)O [BPH-665]
**Result** 13

**Query** Please report IC50 for the following compound: O=P(O)(O)[C@@H](CCCc1cccc(Oc2ccccc2)c1)S(=O)(=O)O [BPH-652]
**Result** 113

**Query** Please report IC50 for the following compound: O=P(O)(O)C(O)(Cc1cccc(-c2cccc(NS(=O)(=O)c3ccc4ccccc4c3)c2)c1)P(=O)(O)O
**Result** 8.2
